# Measured target: ADRBK1 (human) (UniProt P25098)
# Sequence (P25098 whole entry, looked up): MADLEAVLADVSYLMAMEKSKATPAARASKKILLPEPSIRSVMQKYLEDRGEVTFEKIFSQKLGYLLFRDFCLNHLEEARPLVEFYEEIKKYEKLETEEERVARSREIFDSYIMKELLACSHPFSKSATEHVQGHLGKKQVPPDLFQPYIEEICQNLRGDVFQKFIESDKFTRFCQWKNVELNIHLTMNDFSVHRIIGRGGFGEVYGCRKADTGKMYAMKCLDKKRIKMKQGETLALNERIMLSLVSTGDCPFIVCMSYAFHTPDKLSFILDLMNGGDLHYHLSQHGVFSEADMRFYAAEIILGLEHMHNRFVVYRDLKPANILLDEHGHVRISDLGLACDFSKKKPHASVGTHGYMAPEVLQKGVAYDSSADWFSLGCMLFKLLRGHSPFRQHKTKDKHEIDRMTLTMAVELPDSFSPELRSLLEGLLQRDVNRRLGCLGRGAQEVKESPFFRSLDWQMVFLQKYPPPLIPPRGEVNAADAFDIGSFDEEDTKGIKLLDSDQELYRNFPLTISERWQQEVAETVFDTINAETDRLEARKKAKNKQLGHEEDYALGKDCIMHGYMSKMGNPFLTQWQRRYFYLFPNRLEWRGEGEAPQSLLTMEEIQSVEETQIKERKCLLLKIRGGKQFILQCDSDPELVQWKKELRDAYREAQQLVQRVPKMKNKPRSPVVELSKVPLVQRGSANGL
# Experiment description: radiometric filter-binding kinase assay, Kinase HotSpot
# Condition set: compound 0.5 µM; ATP 10 µM
Assay endpoint: residual activity (%)
Write the number in % without appending the unit.

Below are worked cases with known answers.
COc1cc2ncnc(Nc3ccc(OCc4ccccc4)cc3)c2cc1OC    101
COc1ccc2c(c1)/C(=C/c1cnc[nH]1)C(O)=N2    107
COc1ccc(S(=O)(=O)N(CCO)c2ccccc2CN(C)C/C=C/c2ccc(Cl)cc2)cc1    97.9

Write down the reported residual activity of `COc1cc2ncnc(Nc3ccc(Oc4ccccc4)cc3)c2cc1OC` , test system: ADRBK1 (human) (UniProt P25098). 101

Query residual activity on ADRBK1 (human) (UniProt P25098) for `Cn1c2ccccc2c2c3c(c4c5ccccc5n(CCC#N)c4c21)CNC3=O` 103

Lookup: residual activity / ADRBK1 (human) (UniProt P25098) / `COc1cc(Nc2c(C#N)cnc3cc(OCCCN4CCN(C)CC4)c(OC)cc23)c(Cl)cc1Cl` 97.3

Quick check: residual activity on ADRBK1 (human) (UniProt P25098), item `C[C@@H]1CCN(C(=O)CC#N)C[C@@H]1N(C)c1ncnc2[nH]ccc12` ? 95.3

Give residual activity (ADRBK1 (human) (UniProt P25098)) of the following compound: `Ic1cccc(CSc2nnc(-c3ccncc3)o2)c1` 99.9
